Recorded values, source patent US4626540A.

# Tested on: Corynebacterium Sp. ATCC 21698
Listed compounds paired with reported MIC
outcome_measure: MIC

# compound, test_target, obs_value
records = [
    ("CCCCOc1ccc2[nH]c3c([N+](=O)[O-])ccc(NCCNCCO)c3c(=O)c2c1 [Example 18, hydrate]", "Corynebacterium Sp. ATCC 21698", "37 µg/mL"),
    ("CN(C)CCCNc1ccc([N+](=O)[O-])c2[nH]c3ccccc3c(=O)c12.CS(=O)(=O)O [Example 20]", "Corynebacterium Sp. ATCC 21698", "< 0.46 µg/mL"),
    ("COc1ccc2c(c1)c(=O)c1c(NCCCN(C)C)ccc([N+](=O)[O-])c1n2C.CS(=O)(=O)O [Example 34]", "Corynebacterium Sp. ATCC 21698", "12.3 µg/mL"),
    ("CCOc1ccc2[nH]c3c([N+](=O)[O-])ccc(NC(C)CN(C)C)c3c(=O)c2c1 (stereo not drawn) [Example 13]", "Corynebacterium Sp. ATCC 21698", "< 0.46 µg/mL"),
    ("CN(C)CCNc1ccc([N+](=O)[O-])c2[nH]c3ccccc3c(=O)c12 [Example 8, hemihydrate]", "Corynebacterium Sp. ATCC 21698", "< 0.46 µg/mL"),
    ("CCN(CC)CCNc1ccc([N+](=O)[O-])c2[nH]c3ccc(O)cc3c(=O)c12 [Example 2]", "Corynebacterium Sp. ATCC 21698", "< 0.46 µg/mL"),
    ("COc1ccc2[nH]c3c([N+](=O)[O-])ccc(NCC[N+](C)(C)[O-])c3c(=O)c2c1 [Example 14]", "Corynebacterium Sp. ATCC 21698", "1.4 µg/mL"),
    ("CCN(CC)CCNc1ccc([N+](=O)[O-])c2[nH]c3ccccc3c(=O)c12.CS(=O)(=O)O [Example 1]", "Corynebacterium Sp. ATCC 21698", "< 0.46 µg/mL"),
    ("CCN(CC)CCCNc1ccc([N+](=O)[O-])c2[nH]c3ccc(OC)cc3c(=O)c12 [Example 26]", "Corynebacterium Sp. ATCC 21698", "0.46 µg/mL"),
    ("CN(C)CCNc1ccc([N+](=O)[O-])c2c1c(=O)c1ccccc1n2C.CS(=O)(=O)O [Example 32]", "Corynebacterium Sp. ATCC 21698", "333 µg/mL"),
    ("CCCCOc1ccc2[nH]c3c([N+](=O)[O-])ccc(NCCCN(C)C)c3c(=O)c2c1.CS(=O)(=O)O [Example 24]", "Corynebacterium Sp. ATCC 21698", "4.1 µg/mL"),
    ("CCOc1ccc2[nH]c3c([N+](=O)[O-])ccc(NCCN(CC)CC)c3c(=O)c2c1.CS(=O)(=O)O [Example 4]", "Corynebacterium Sp. ATCC 21698", "4.1 µg/mL"),
    ("COc1ccc2[nH]c3c([N+](=O)[O-])ccc(NCCN(C)C)c3c(=O)c2c1.CS(=O)(=O)O [Example 9]", "Corynebacterium Sp. ATCC 21698", "< 0.46 µg/mL"),
    ("COc1ccc2[nH]c3c([N+](=O)[O-])ccc(NCCCN(C)C)c3c(=O)c2c1 [Example 22, hemihydrate]", "Corynebacterium Sp. ATCC 21698", "< 0.46 µg/mL"),
    ("CCOc1ccc2[nH]c3c([N+](=O)[O-])ccc(NCCN(CCO)CCO)c3c(=O)c2c1 [Example 19, hydrate]", "Corynebacterium Sp. ATCC 21698", "> 1000 µg/mL"),
    ("CCN(CC)CCNc1ccc([N+](=O)[O-])c2[nH]c3cc(O)ccc3c(=O)c12.CS(=O)(=O)O [Example 28]", "Corynebacterium Sp. ATCC 21698", "< 0.46 µg/mL"),
    ("COc1ccc2[nH]c3c([N+](=O)[O-])ccc(NC(C)CN(C)C)c3c(=O)c2c1 (stereo not drawn) [Example 12, hydrate]", "Corynebacterium Sp. ATCC 21698", "4.1 µg/mL"),
    ("CN(C)CCCNc1ccc([N+](=O)[O-])c2[nH]c3ccc(OC(=O)C(C)(C)C)cc3c(=O)c12 [Example 25, hemihydrate]", "Corynebacterium Sp. ATCC 21698", "333 µg/mL"),
    ("CCN(CC)CCNc1ccc([N+](=O)[O-])c2c1c(=O)c1ccccc1n2C [Example 30]", "Corynebacterium Sp. ATCC 21698", "111 µg/mL"),
    ("CN(C)CCCNc1ccc([N+](=O)[O-])c2[nH]c3ccc(O)cc3c(=O)c12 [Example 21]", "Corynebacterium Sp. ATCC 21698", "0.46 µg/mL"),
    ("CCN(CC)CCNc1ccc([N+](=O)[O-])c2[nH]c3ccc(OC)c(Cl)c3c(=O)c12 [Example 27]", "Corynebacterium Sp. ATCC 21698", "< 0.46 µg/mL"),
]
